Reference source: ChEMBL document CHEMBL1133816

# TEST_SYSTEM: UniProt:P25779
# Sequence (P25779 123-467 limits assumed): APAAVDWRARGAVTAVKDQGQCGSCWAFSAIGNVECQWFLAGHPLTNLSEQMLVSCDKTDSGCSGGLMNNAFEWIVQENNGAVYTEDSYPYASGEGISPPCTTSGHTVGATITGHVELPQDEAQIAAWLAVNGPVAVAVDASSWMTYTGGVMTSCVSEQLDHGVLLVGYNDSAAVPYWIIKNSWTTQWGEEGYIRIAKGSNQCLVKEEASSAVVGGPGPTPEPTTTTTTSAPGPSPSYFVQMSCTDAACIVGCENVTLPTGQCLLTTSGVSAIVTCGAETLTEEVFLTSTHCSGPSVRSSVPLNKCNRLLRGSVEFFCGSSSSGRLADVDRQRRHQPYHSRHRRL
# PROTOCOL_DETAILS: Second order rate constant for inactivation of cruzain of Trypanosoma cruzi
Task for the reader: assign each of the following compounds its reported K ass.
One number for each entry, in M⁻¹ s⁻¹.

Illustrative cases are given below, each with its answer.
| STRUCTURE | K ass [M⁻¹ s⁻¹] |
| --- | --- |
| CN1CCN(C(=O)N[C@@H](Cc2ccccc2)C(=O)N[C@H](/C=C/S(=O)(=O)Cc2ccccc2)CCc2ccccc2)CC1 | 3.85e+06 |
| O=C(N[C@H](/C=C/S(=O)(=O)Cc1ccccc1)CCc1ccccc1)[C@H](Cc1ccccc1)NC(=O)N1CCOCC1 | 1.67e+06 |
| O=C(N[C@H](/C=C/S(=O)(=O)c1ccccc1)CCc1ccccc1)[C@H](Cc1ccccc1)NC(=O)N1CCOCC1 | 181000 |
| CN1CCN(C(=O)N[C@@H](Cc2ccccc2)C(=O)N[C@H](/C=C/S(=O)(=O)Nc2ccccc2)CCc2ccccc2)CC1 | 1.26e+06 |
| O=C(N[C@@H](Cc1ccccc1)C(=O)N[C@H](/C=C/S(=O)(=O)Nc1ccccc1)CCc1ccccc1)OCc1ccccc1 | 242000 |

Give me K ass for each of these compounds, listed below.
1. O=C(N[C@H](/C=C/S(=O)(=O)NOCc1ccccc1)CCc1ccccc1)[C@H](Cc1ccccc1)NC(=O)N1CCOCC1
2. O=C(N[C@H](/C=C/S(=O)(=O)Nc1ccccc1)CCc1ccccc1)[C@H](Cc1ccccc1)NC(=O)N1CCOCC1

Ans:
1: 2.27e+06; 2: 4.92e+06

###

# Test system: Trypanosoma cruzi
# PROTOCOL_DETAILS: Effect on survival time of against […] macrophages infected with Trypanosoma cruzi trypomastigotes at a concentration of 10 uM
# Format: functional
REPORTED_ENDPOINT: Survival time

In the examples that follow, each entry is paired with its recorded Survival time.
| STRUCTURE | Survival time |
| --- | --- |
| CN1CCN(C(=O)N[C@@H](Cc2ccccc2)C(=O)N[C@H](/C=C/S(=O)(=O)NOCc2ccccc2)CCc2ccccc2)CC1 | >24 days |
| CN1CCN(C(=O)N[C@@H](Cc2ccccc2)C(=O)N[C@H](/C=C/S(=O)(=O)Cc2ccccc2)CCc2ccccc2)CC1 | 13 days |
| O=C(N[C@@H](Cc1ccccc1)C(=O)N[C@H](/C=C/S(=O)(=O)Nc1ccccc1)CCc1ccccc1)OCc1ccccc1 | 6 days |
| O=C(N[C@H](/C=C/S(=O)(=O)NOCc1ccccc1)CCc1ccccc1)[C@H](Cc1ccccc1)NC(=O)N1CCOCC1 | >24 days |
| O=C(N[C@H](/C=C/S(=O)(=O)Nc1ccccc1)CCc1ccccc1)[C@H](Cc1ccccc1)NC(=O)N1CCOCC1 | 9 days |

Parameters: items (list). Returns: Survival time for each item.
1. O=C(N[C@H](/C=C/S(=O)(=O)Oc1ccccc1)CCc1ccccc1)[C@H](Cc1ccccc1)NC(=O)N1CCOCC1
2. O=C(N[C@@H](Cc1ccccc1)C(=O)N[C@H](/C=C/S(=O)(=O)Cc1ccccc1)CCc1ccccc1)OCc1ccccc1

Ans:
Toxic
6 days

###

# Test system: Trypanosoma cruzi
# PROTOCOL_DETAILS: Effect on survival time of against […] macrophages infected with Trypanosoma cruzi trypomastigotes at a concentration of 10 uM
# Type: functional
REPORTED_ENDPOINT: Survival time (days)
Numbers only, in days.

| STRUCTURE | UNIT_TEXT | Survival time |
| --- | --- | --- |
| CN1CCN(C(=O)N[C@@H](Cc2ccccc2)C(=O)N[C@H](/C=C/S(=O)(=O)Nc2ccccc2)CCc2ccccc2)CC1 | days | 9 |
| O=C(N[C@H](/C=C/S(=O)(=O)Cc1ccccc1)CCc1ccccc1)[C@H](Cc1ccccc1)NC(=O)N1CCOCC1 | days | 20 |

Q: Name the reported Survival time value associated with the molecule CN1CCN(C(=O)N[C@@H](Cc2ccccc2)C(=O)N[C@H](/C=C/S(=O)(=O)Oc2ccccc2)CCc2ccccc2)CC1
Ans: 9
